system: HepG2; test: cytotoxicity call (relative viability < 0.9); details: 10 µM
The campaign covered roughly 39,000 compounds. About 3,300 (8.5%) were called active. Shown is part of a subset that was picked to be rich in actives.
Outcome codes: 1 (active), -1 (inactive)

{"COMPOUND": "CCOC(=O)c1c(CN2CCN(CCOCCO)CC2)n(-c2ccccc2)c2cc(Br)c(O)cc12", "SYSTEM_NAME": "HepG2", "LABEL_VALUE": 1}
{"COMPOUND": "C[C@@H]1CCCCO[C@H](CN(C)Cc2ccc(C(=O)O)cc2)[C@@H](C)CN([C@@H](C)CO)C(=O)c2cc(NC(=O)Cc3ccccc3)ccc2O1", "SYSTEM_NAME": "HepG2", "LABEL_VALUE": -1}
{"COMPOUND": "CC1=C(C(=O)OCCN(Cc2ccccc2)c2ccccc2)[C@H](c2cccc([N+](=O)[O-])c2)C(P2(=O)OCC(C)(C)CO2)=C(C)N1", "SYSTEM_NAME": "HepG2", "LABEL_VALUE": -1}
{"COMPOUND": "C[C@@H]1CN([C@H](C)CO)C(=O)c2cc(NC(=O)C3CCCCC3)ccc2O[C@@H](C)CCCCO[C@H]1CN(C)S(=O)(=O)c1ccc(Cl)cc1", "SYSTEM_NAME": "HepG2", "LABEL_VALUE": -1}
{"COMPOUND": "CO[C@@H]1CN(C)C(=O)c2ccc(NC(=O)Nc3ccccc3F)cc2OC[C@@H](C)N(C(=O)Nc2ccccc2F)C[C@H]1C", "SYSTEM_NAME": "HepG2", "LABEL_VALUE": -1}
{"COMPOUND": "CNCc1cccc2ccccc12", "SYSTEM_NAME": "HepG2", "LABEL_VALUE": -1}
{"COMPOUND": "COC(=O)C1=C(C)NC(C)=C(C(=O)OCCCN2CCC(c3ccccc3)(c3ccccc3)CC2)[C@@H]1c1cccc([N+](=O)[O-])c1", "SYSTEM_NAME": "HepG2", "LABEL_VALUE": 1}
{"COMPOUND": "Clc1ccc(Cn2ccnc2)cc1", "SYSTEM_NAME": "HepG2", "LABEL_VALUE": -1}
{"COMPOUND": "CO[C@@H](CN(C)S(=O)(=O)c1cn(C)cn1)[C@@H](C)CN(C(=O)Nc1ccc(C(F)(F)F)cc1)[C@@H](C)CO", "SYSTEM_NAME": "HepG2", "LABEL_VALUE": -1}
{"COMPOUND": "NS(=O)(=O)c1ccc(CCn2ccn(CC(=O)NCCC3=CCCCC3)c(=O)c2=O)cc1", "SYSTEM_NAME": "HepG2", "LABEL_VALUE": -1}
{"COMPOUND": "CNCCC(Oc1cccc2ccccc12)c1cccs1.Cl (configuration not stated)", "SYSTEM_NAME": "HepG2", "LABEL_VALUE": 1}
{"COMPOUND": "C[C@@H]1CCCCO[C@H](CN(C)C(=O)CCCN(C)C)[C@@H](C)CN([C@@H](C)CO)C(=O)c2cc(N(C)C)ccc2O1", "SYSTEM_NAME": "HepG2", "LABEL_VALUE": -1}
{"COMPOUND": "C[C@@H]1CN([C@H](C)CO)S(=O)(=O)c2ccc(C#CC3CC3)cc2O[C@H]1CN(C)Cc1cccc(F)c1", "SYSTEM_NAME": "HepG2", "LABEL_VALUE": -1}
{"COMPOUND": "C[C@H]1CN([C@@H](C)CO)C(=O)Cc2cc(NC(=O)Nc3cccc4ccccc34)ccc2O[C@@H]1CN(C)C(=O)NC1CCCCC1", "SYSTEM_NAME": "HepG2", "LABEL_VALUE": -1}
{"COMPOUND": "CCOC(=O)c1c(CN2CCN(c3ccccc3)CC2)n(-c2ccccc2)c2cc(Br)c(OC)cc12", "SYSTEM_NAME": "HepG2", "LABEL_VALUE": -1}
{"COMPOUND": "CCOC(=O)c1c(CN2CCN(c3ccccc3)CC2)n(-c2ccccc2)c2cc(Br)c(O)cc12", "SYSTEM_NAME": "HepG2", "LABEL_VALUE": -1}
{"COMPOUND": "CC(=O)Nc1cc2c(cc1N)OCCO2", "SYSTEM_NAME": "HepG2", "LABEL_VALUE": -1}

Cited source: the antibiotic and cytotoxicity screens of Wong et al. (2023)
